target: USP7 (Homo sapiens, UniProt Q93009, C315A); construct: 0.25 nM His-His-USP7 (aa208-560, |C315A|) was incubated with compound; His-His (N); test: Inhibition of USP7 by Fluorescence Intensity (FLINT) readings, Ubiquitin-Rhodamine-110 substrate; type: biochemical; conditions: 0.25 nM His-His-USP7 (aa208-560), 60 minutes at 30° C. preincubation; Ki determined from IC50 according to Cer et al.
Sequence (Q93009 208-560 C315A): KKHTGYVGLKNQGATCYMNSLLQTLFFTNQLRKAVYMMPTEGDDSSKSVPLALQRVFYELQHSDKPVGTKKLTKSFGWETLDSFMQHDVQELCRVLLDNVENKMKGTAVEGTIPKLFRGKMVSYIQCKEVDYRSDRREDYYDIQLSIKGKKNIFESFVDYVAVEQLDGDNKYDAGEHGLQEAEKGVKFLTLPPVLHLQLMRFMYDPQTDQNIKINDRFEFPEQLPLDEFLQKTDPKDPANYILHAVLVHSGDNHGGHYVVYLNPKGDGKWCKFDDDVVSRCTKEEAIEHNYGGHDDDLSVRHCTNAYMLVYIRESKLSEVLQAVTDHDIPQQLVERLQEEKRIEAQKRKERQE
I'd be grateful if you could share measured Ki for these entries.
Give bare numbers, in nM.

Consider the worked cases shown below.
Nc1c(Oc2ccc(F)cc2)ncn(CC2(O)CCN(C(=O)[C@@H]3CCN(C(=O)Nc4nc5ccccc5s4)C[C@H]3c3ccccc3)CC2)c1=O: 88
Cc1ccc(-c2cc(F)cc(C(=O)N3CC[C@@H](C(=O)N4CCC(O)(Cn5cnc(Oc6ccc(F)cc6)c(N)c5=O)CC4)[C@H](c4ccccc4)C3)c2)cn1: 4.68
CC(C)(O)CN1CC[C@@H](C(=O)N2CCC(O)(Cn3cnc(Oc4ccc(F)cc4)c(N)c3=O)CC2)[C@H](c2ccccc2)C1: 326
Cc1cc(C(=O)N2CC[C@@H](C(=O)N3CC[C@](O)(Cn4cnc(Oc5ccc(F)cc5)c(N)c4=O)C(F)(F)C3)[C@H](c3ccccc3)C2)nn1-c1ccccc1: 45.4
CC(C)(C)OC(=O)N1CC[C@@H](C(=O)N2CCC(O)(Cn3cnc(Oc4cccc(OC(F)(F)F)c4)c(N)c3=O)CC2)[C@H](c2ccccc2)C1: 398

Each of the following entries comes with a recorded value; kindly state Ki for each.
1. Cc1nc(-c2ccc(C(F)(F)F)nc2)sc1C(=O)N1CC[C@@H](C(=O)N2CC[C@](O)(Cn3cnc(Oc4ccc(F)cc4)c(N)c3=O)C(F)(F)C2)[C@H](c2ccccc2)C1
2. Cc1ccc(-c2cncc(C(=O)N3CC[C@@H](C(=O)N4CCC(O)(Cn5cnc(Oc6ccc(F)cc6)c(N)c5=O)CC4)[C@H](c4ccccc4)C3)c2)cn1
3. Nc1c(Oc2ccc(F)cc2)ncn(CC2(O)CCN(C(=O)[C@@H]3CCN(C(=O)C4(c5ccccc5)CC4)C[C@H]3c3ccccc3)CC2)c1=O
4. Cc1cnc(CN2CC[C@@H](C(=O)N3CC[C@](O)(Cn4cnc(Oc5ccc(Cl)c(F)c5)c(N)c4=O)C(F)(F)C3)[C@H](c3ccccc3)C2)cn1

[6.4, 3.58, 35.4, 7.5]

Value sought for every listed molecule: Ki.
1. COc1cc(Oc2ncn(C[C@@]3(O)CCN(C(=O)[C@@H]4CCN(Cc5nccc(C)n5)C[C@H]4c4ccccc4)CC3(F)F)c(=O)c2N)ccc1F
2. Cc1ccc(-c2ncc(CN3CC[C@@H](C(=O)N4CCC(O)(Cn5cnc(Oc6ccc(F)cc6)c(N)c5=O)CC4)[C@H](c4ccccc4)C3)s2)cn1
3. CCOC(=O)C(c1ccccc1)N1CC[C@@H](C(=O)N2CCC(O)(Cn3cnc(Oc4ccc(F)cc4)c(N)c3=O)CC2)[C@H](c2ccccc2)C1 (stereo partly drawn)
4. Cc1cnc(CN2CC[C@@H](C(=O)N3CC[C@](O)(Cn4cnc(Oc5ccc(Cl)cc5)c(N)c4=O)C(F)(F)C3)[C@H](c3ccccc3)C2)cn1
5. Nc1c(Oc2ccc(F)cc2)ncn(CC2(O)CCN(C(=O)[C@@H]3CCN(C4(c5cccc(F)c5)COC4)C[C@H]3c3ccccc3)CC2)c1=O
6. COc1cc(Cl)cc(Oc2ncn(CC3(O)CCN(C(=O)[C@@H]4CCN(C(=O)OC(C)(C)C)C[C@H]4c4ccccc4)CC3)c(=O)c2N)c1
7. Nc1c(Oc2ccccc2)ncn(CC2(O)CCN(C(=O)[C@@H]3CCN(C4(c5ccccc5F)COC4)C[C@H]3c3ccccc3)CC2)c1=O

[25.7, 2.6, 63, 35.5, 28.7, 191, 66]

Provide reported Ki for each item, in the same order as listed.
1. Nc1c(Oc2ccc(F)cc2)ncn(C[C@@]2(O)CCN(C(=O)[C@@H]3CCN(Cc4cnccn4)C[C@H]3c3ccccc3)CC2(F)F)c1=O
2. Nc1c(Oc2ccc(F)cc2)ncn(C[C@@]2(O)CCN(C(=O)[C@@H]3CCN(C(=O)Nc4ccccc4)C[C@H]3c3ccccc3)CC2(F)F)c1=O

21.8
37
